System Under Test: PDE2A (Homo sapiens)
Sequence (O00408 whole entry, species assumed): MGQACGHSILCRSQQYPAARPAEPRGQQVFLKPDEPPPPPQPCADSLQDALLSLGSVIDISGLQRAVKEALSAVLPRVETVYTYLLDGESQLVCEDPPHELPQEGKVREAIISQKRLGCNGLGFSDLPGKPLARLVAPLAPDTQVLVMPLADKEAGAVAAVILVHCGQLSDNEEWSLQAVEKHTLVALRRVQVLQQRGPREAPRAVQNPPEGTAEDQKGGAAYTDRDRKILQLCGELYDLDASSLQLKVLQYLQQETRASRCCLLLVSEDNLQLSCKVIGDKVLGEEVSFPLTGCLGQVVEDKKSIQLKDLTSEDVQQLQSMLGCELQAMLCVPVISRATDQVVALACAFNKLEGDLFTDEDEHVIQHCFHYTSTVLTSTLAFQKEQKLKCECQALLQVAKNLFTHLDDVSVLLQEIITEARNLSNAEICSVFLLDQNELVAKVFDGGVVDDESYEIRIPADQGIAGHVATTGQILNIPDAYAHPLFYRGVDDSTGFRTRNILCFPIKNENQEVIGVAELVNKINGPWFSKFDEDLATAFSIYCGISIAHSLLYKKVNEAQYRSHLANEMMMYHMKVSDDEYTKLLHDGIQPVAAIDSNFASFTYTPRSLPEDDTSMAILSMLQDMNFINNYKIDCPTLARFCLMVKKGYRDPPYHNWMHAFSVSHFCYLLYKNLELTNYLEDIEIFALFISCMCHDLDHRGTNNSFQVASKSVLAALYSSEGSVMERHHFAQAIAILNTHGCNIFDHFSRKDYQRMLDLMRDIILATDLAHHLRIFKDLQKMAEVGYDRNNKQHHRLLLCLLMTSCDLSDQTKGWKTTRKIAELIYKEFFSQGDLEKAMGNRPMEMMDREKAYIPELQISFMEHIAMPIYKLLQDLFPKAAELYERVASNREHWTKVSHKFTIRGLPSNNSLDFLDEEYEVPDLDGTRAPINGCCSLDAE
Measurement Protocol: PDE 2A assay with fluorescent substrate (IMAP, fluorescence polarization)
Type: biochemical
Conditions Used: read-out: PDE2 IC50
pIC50: −log10 of the molar value.
Experimental Endpoint: pIC50

> print(dat)
                                   compound     system.under.test  experimental.endpoint  reading
1  CCCC(O)c1ccc(Cl)c(-c2nnc3c(C)nc4ccc(C)nc4n23)c1 (stereo not shown)  PDE2A (Homo sapiens)                  pIC50     8.40

P. COCCOc1ccc(Cl)c(-c2nnc3c(C)nc4ccc(C)nc4n23)c1
Q. Cc1nc2ccc(C3CC3)nc2n2c(-c3cc(OC4COCCC4O)ccc3Cl)nnc12 (single isomer, unassigned) [Example 109d]
R. Cc1nc2ccc(C(F)(F)F)nc2n2c(-c3cc(OC4COCC4O)ccc3F)nnc12 (single isomer, unassigned) [Example 106a]
Ordering: ascending pIC50. # format: label list in the order the request specifies R, P, Q
(R: 6.37, P: 7.43, Q: 8.40)

###

For PDE10 (Homo sapiens, UniProt Q9Y233), measured IC50 is reported for the entries below.
Experimental Endpoint: IC50 (nM)

> print(dat)
                                   molecule  units  reading
1  Cc1nc2cccnc2n2c(-c3cc(CCC(C)(C)O)ccc3Cl)nnc12     nM     3870

I. Cc1ccc(C2(O)CCOCC2O)cc1-c1nnc2c(C)nc3ccc(C4CC4)nc3n12 (single isomer, unassigned) [Example 104b]
II. Cc1nc2ccc(C3CC3)nc2n2c(-c3cc(C(C)(C)O)ccc3F)nnc12
# argmax over IC50 for candidates I and II Lab note: record the label of whichever item you select. I
(I: 9760 nM, II: 1100 nM)

###

Measurement Protocol: Animal experiments and sample analysis: plasma, brain and CSF concentration
Type: in vivo
Conditions Used: rat; 2 h between administration and CSF sampling; doses of 10.0 or 5 μmol/kg; read-out: conc CSF
Experimental Endpoint: concentration at 2 h (nM)

Answered examples (3):
> print(dat)
                                 mol.smiles  experimental.endpoint  reading
1  Cc1ccc(C(C)(C)O)cc1-c1nnc2c(C)nc3ccc(C4CC4)nc3n12   concentration at 2 h       31
2  Cc1nc2ccc(C3CC3)nc2n2c(-c3cc(OCC(C)(C)O)ccc3Cl)nnc12   concentration at 2 h       25
3  Cc1nc2ccc(C3CC3)nc2n2c(-c3cc(C(C)(C)O)ccc3F)nnc12   concentration at 2 h       18

a. Cc1nc2ccc(C3CC3)nc2n2c(-c3cc(OCC(C)(C)O)ccc3F)nnc12
b. Cc1nc2cccnc2n2c(-c3cc(C(C)(C)O)ccc3Cl)nnc12
c. Cc1nc2cccnc2n2c(-c3cc(CCC(C)(C)O)ccc3Cl)nnc12
d. Cc1nc2cccnc2n2c(-c3cc(OCC4(O)CCC4)ccc3Cl)nnc12
# desc sort on concentration at 2 h across 4 compounds # format: label list in the order the request specifies b, c, a, d
(b: 276 nM, c: 37 nM, a: 22 nM, d: 13 nM)

###

Measurement Protocol: Animal experiments and sample analysis: plasma, brain and CSF concentration
Assay type: in vivo
Conditions Used: brain; rat; 2 h between administration and CSF sampling; read-out: c(brain)/c(plasma)
Experimental Endpoint: Kp at 2 h

Answered examples (3):
> print(dat)
                                   compound  reading
1  Cc1nc2cccnc2n2c(-c3cc(CCC(C)(C)O)ccc3Cl)nnc12 [Example 64]      0.5
2  Cc1nc2ccc(C3CC3)nc2n2c(-c3cc(OCC(C)(C)O)ccc3F)nnc12 [Example 47]      0.7
3  Cc1ccc(C(C)(C)O)cc1-c1nnc2c(C)nc3ccc(C4CC4)nc3n12 [Example 75]     0.34

a. Cc1nc2cccnc2n2c(-c3cc(C(C)(C)O)ccc3Cl)nnc12 [Example 70]
b. Cc1nc2ccc(C3CC3)nc2n2c(-c3cc(C(C)(C)O)ccc3F)nnc12 [Example 76]
c. Cc1nc2cccnc2n2c(-c3cc(OCC4(O)CCC4)ccc3Cl)nnc12 [Example 49]
# desc sort on Kp at 2 h across 3 compounds # format: label list in the order the request specifies b, a, c
(b: 0.5, a: 0.29, c: 0.2)

// data source = patent US20140045856A1
